Target: High affinity 3',5'-cyclic-AMP phosphodiesterase 7A (Homo sapiens)
Sequence (Q13946 whole entry): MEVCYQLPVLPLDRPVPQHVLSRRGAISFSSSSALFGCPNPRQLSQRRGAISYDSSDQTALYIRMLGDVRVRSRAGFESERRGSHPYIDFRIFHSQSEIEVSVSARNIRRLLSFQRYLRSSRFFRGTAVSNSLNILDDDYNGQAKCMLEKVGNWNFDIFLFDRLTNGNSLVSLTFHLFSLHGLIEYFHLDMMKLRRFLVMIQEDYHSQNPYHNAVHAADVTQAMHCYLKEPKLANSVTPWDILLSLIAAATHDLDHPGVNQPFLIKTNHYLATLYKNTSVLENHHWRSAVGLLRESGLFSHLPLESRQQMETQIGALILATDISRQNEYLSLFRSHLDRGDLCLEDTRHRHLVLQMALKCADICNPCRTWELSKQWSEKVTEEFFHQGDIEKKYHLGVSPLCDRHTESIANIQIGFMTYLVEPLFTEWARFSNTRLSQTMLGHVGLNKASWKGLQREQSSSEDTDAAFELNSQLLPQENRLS
Assay: Inhibition of GST-tagged recombinant human PDE7A1
Conditions: read-out: IC50
Readout Kind: IC50

| Structure Smiles | Assay Value |
| --- | --- |
| CCCc1nn(C)c2c(=O)[nH]c(-c3cc(S(=O)(=O)NCCCCCCO)ccc3OCC)nc12 | > 10 µM |

====

Assay: AUC (0 to time) in Swiss mouse at 10 mg/kg, po
Format: ADME, organism-based
Parameters: dose 10 mg/kg, route oral
Conditions: plasma

| Structure Smiles | AUC (ng·h/mL) |
| --- | --- |
| CCCc1nn(C)c2c(=O)[nH]c(-c3cc(S(=O)(=O)NCCCCCCO)ccc3OCC)nc12 | 134 |
